target: Substance-K receptor (Mesocricetus auratus); test: Binding affinity towards Tachykinin receptor 2 using [125I]iodohistidyl-NKA (0.1 nM)) as radioligand; set-up: species or system Cricetulus griseus
Sequence (P51144 whole entry): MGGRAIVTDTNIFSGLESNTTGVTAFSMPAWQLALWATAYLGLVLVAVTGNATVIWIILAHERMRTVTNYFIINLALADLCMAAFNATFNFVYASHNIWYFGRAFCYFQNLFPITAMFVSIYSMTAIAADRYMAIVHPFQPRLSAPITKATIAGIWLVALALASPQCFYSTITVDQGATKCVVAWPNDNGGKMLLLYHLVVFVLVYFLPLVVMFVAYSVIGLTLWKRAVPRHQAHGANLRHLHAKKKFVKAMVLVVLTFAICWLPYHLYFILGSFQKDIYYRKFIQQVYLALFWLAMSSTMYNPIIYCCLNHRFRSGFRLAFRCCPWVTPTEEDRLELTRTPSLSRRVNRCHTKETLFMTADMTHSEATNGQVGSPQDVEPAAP
reportedEndpoint: IC50 (µM)
Give bare numbers, in µM.

Noted IC50 for Ac-LMQWFG-OH , tested on Substance-K receptor (Mesocricetus auratus): 19.8
